Reported Activity values follow for various compounds
measuredTarget: Serine/threonine-protein kinase pim-1 (Homo sapiens, UniProt P11309)
Sequence (P11309 whole entry, looked up): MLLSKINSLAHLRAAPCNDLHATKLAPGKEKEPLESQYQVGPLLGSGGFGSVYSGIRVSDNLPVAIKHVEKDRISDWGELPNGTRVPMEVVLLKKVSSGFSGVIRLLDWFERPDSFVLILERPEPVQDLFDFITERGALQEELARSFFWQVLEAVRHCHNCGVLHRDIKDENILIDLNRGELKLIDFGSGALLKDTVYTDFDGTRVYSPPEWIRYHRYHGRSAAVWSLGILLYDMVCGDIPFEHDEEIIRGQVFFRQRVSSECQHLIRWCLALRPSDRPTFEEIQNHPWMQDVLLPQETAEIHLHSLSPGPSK
experimentNotes: Inhibition of recombinant human PIM-1 extracted from bacteria using histone H1 as substrate assessed as enzyme residual activity at 10 uM incubated for 30 mins in presence of ATP by ADP-Glo kinase assay relative to control
recordedEndpoint: Activity (%)

O=C1CCC(N2C(=O)c3cccc(NCCOCCOCCOCCn4cc(-c5ccncc5)c5cc6ccncc6cc54)c3C2=O)C(=O)N1 (stereo unspecified)
64
c1cncc(-c2c[nH]c3cc4cnccc4cc23)c1
22
c1cc2cc3c(cc2cn1)NCC3
70
O=C1CCC(N2C(=O)c3cccc(NCCOCCOCCOCCn4ccc5cc6ccncc6cc54)c3C2=O)C(=O)N1 (stereo unspecified)
86
Cn1cc(-c2ccccn2)c2cc3ccncc3cc21
38
c1ccc(-c2c[nH]c3cc4cnccc4cc23)nc1
19
O=C1CCC(N2C(=O)c3cccc(NCCOCCOCCOCCn4cc(-c5cccnc5)c5cc6ccncc6cc54)c3C2=O)C(=O)N1 (stereo unspecified)
66
Cn1cc(-c2cccnc2)c2cc3ccncc3cc21
54
Cn1cc(-c2ccncc2)c2cc3ccncc3cc21
18
O=C1CCC(N2C(=O)c3cccc(NCCOCCOCCOCCNC(=O)c4c[nH]c5cc6cnccc6cc45)c3C2=O)C(=O)N1 (stereo unspecified)
75
c1cc2c(ccc3cc[nH]c32)cn1
38

====

measuredTarget: Serine/threonine-protein kinase haspin (Homo sapiens)
experimentNotes: Inhibition of recombinant human haspin kinase domain (470 to 798 residues) extracted from bacteria using histone H3 (1 to 21) peptide as substrate assessed as residual activity at 1 uM incubated for 30 mins in presence of ATP by ADP-Glo kinase assay relative to control
Entry class follows Activity: Low (below 40%), Medium (40% to below 80%), High (80% or more)

O=C1CCC(N2C(=O)c3cccc(NCCOCCOCCOCCn4cc(-c5ccncc5)c5cc6ccncc6cc54)c3C2=O)C(=O)N1 (centres undefined)
Medium
O=C1CCC(N2C(=O)c3cccc(NCCOCCOCCOCCn4cc(Br)c5cc6ccncc6cc54)c3C2=O)C(=O)N1 (centres undefined)
High
Cn1cc(-c2cccnc2)c2cc3ccncc3cc21
Low
O=C1CCC(N2C(=O)c3cccc(NCCOCCOCCOCCNC(=O)c4c[nH]c5cc6cnccc6cc45)c3C2=O)C(=O)N1 (centres undefined)
Medium
Cn1cc(-c2ccccn2)c2cc3ccncc3cc21
Low
O=C1CCC(N2C(=O)c3cccc(NCCOCCOCCOCCn4ccc5cc6ccncc6cc54)c3C2=O)C(=O)N1 (centres undefined)
High

====

measuredTarget: Cyclin-dependent kinase 5/CDK5 activator 1 (Homo sapiens) (UniProt Q00535+Q15078)
Sequence (Q00535 whole entry): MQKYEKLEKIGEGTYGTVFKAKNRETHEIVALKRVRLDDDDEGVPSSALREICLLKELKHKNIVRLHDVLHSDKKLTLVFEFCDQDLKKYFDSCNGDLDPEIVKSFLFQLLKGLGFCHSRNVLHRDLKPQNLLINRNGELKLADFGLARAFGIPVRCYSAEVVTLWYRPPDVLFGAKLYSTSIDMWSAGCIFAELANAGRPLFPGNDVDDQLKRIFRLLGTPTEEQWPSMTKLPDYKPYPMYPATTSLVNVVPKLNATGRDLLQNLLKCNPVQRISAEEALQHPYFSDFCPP
Sequence (Q15078 99-307 partner limits assumed): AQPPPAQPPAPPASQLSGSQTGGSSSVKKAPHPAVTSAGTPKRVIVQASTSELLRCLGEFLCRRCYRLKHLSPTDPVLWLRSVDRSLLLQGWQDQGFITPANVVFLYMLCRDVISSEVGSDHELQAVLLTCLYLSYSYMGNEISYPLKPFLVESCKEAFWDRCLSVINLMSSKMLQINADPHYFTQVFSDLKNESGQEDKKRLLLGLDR
experimentNotes: Inhibition of recombinant human CDK5/p25 extracted from bacteria using histone H1 as substrate assessed as enzyme residual activity at 10 uM incubated for 30 mins in presence of ATP by ADP-Glo kinase assay relative to control
Type: protein-complex assay
recordedEndpoint: Activity (%)

Cn1cc(-c2ccncc2)c2cc3ccncc3cc21
44
O=C1CCC(N2C(=O)c3cccc(NCCOCCOCCOCCn4cc(-c5cccnc5)c5cc6ccncc6cc54)c3C2=O)C(=O)N1 (stereo not given)
100
O=C1CCC(N2C(=O)c3cccc(NCCOCCOCCOCCn4ccc5cc6ccncc6cc54)c3C2=O)C(=O)N1 (stereo not given)
100
Cn1cc(-c2ccccn2)c2cc3ccncc3cc21
100
O=C1CCC(N2C(=O)c3cccc(NCCOCCOCCOCCNC(=O)c4c[nH]c5cc6cnccc6cc45)c3C2=O)C(=O)N1 (stereo not given)
100
